- System: Pseudomonas aeruginosa
- procedureDetails: Antibacterial activity against Pseudomonas aeruginosa ATCC 10145 after 3 mins.
- Format: functional
observedProperty: Activity

Cl.N=C(NCc1ccc(Cl)c(Cl)c1)NC(=N)Nc1ccc(Cl)cc1Cl :: <=10 ug ml-1
Cl.N=C(NCc1ccc(Cl)c(Cl)c1)NC(=N)Nc1ccc(I)cc1 :: <=10 ug ml-1
CCCCCCCC/N=C(N)/N=C(\N)NCc1ccc(Cl)c(Cl)c1.Cl :: <=10 ug ml-1

Cited source for all entries: ChEMBL document CHEMBL1152072
